System: purple nutsedge
Experiment: Test B pre/postemergence purple nutsedge
Format: in vivo, Cyperus rotundus
Details: Preemergence, Rate 125 g/ha; 0 is no effect, 10 is complete control
READOUT_NAME: Nutsedge plant response rating (0 to 10 scale)
Give the figure only, with no unit attached.

[[record]]
molecule = "Cc1ccccc1-n1c(=O)on(C(=O)N(c2ccccc2F)C(C)C)c1=O"
measured_result = 0

[[record]]
molecule = "C=C(C)Cn1c(=O)on(C(=O)N(c2ccc(F)cc2)C(C)C)c1=O"
measured_result = 0

[[record]]
molecule = "CC(C)N(C(=O)n1oc(=O)n(C(C)c2ccccc2)c1=O)c1ccc(F)cc1 (stereo not shown)"
measured_result = 0


Then this molecule:
INPUT: Give the measured Nutsedge plant response rating (0 to 10 scale) of CC(C)N(C(=O)n1oc(=O)n(-c2nc(Cl)sc2Cl)c1=O)c1ccc(F)cc1 .
OUTPUT: 0
